# Test Protocol: Cytotoxicity on mammalian cells (CCK-8), NIH3T3
# Format: cell-based
# Measurement Context: mouse, NIH3T3 cells, 3T3 cell line
Counter-ions that a name gives are not always drawn.
Quantity Kind: CC50 at 24 h (µM)

| Compound | Qualifier Operator | Value |
| --- | --- | --- |
| Cc1cc(COc2ccc(C3=NCCN3)cc2)cc(COc2ccc(C3=NCCN3)cc2)c1 [MD-129, dihydrochloride] | = | 25 |
| CC(C)NC(=N)c1ccc(OCc2cccc(COc3ccc(C(=N)NC(C)C)cc3)c2F)cc1 [MD-110, dihydrochloride] | > | 100 |
| N=C(N)c1ccc(OCc2ccc(COc3ccc(C(=N)N)cc3)cc2)cc1 [MD-101, dihydrochloride] | > | 100 |
| Cc1cc(CSc2ccc(C3=NCCN3)cc2)cc(CSc2ccc(C3=NCCN3)cc2)c1 [MD-118, dihydrochloride] | = | 12.5 |
| Cc1cc(CCc2ccc(C(=N)N)cc2)cc(CCc2ccc(C(=N)N)cc2)c1 [MD-108, dihydrochloride] | = | 50 |
| N=C(N)c1ccc(OCc2cc(COc3ccc(C(=N)N)cc3)cc(COc3ccc(C(=N)N)cc3)c2)cc1 [MD-107, trihydrochloride] | > | 100 |

###

# Test Protocol: Cytotoxicity in H9c2 cells (CCK-8)
# Assay type: cell-based
# Measurement Context: rat; H9c2 cells; 24 hours
# Experimental: The cytotoxicity in H9c2 (ATCC®CRL-1446™) cells was also determined. The H9c2 cells were maintained in DMEM (Dulbecco's Modified Eagle's Medium) supplemented with 10% fetal bovine serum (MidSci; S01520HI) and 1% penicillin-streptomycin (Sigma-Aldrich; P4333) at 37° C. with 5% CO2. The H9c2 cells were seeded in 96-well plate one day before the experiment. […] After 3 hours incubation at 37° C., the absorbance at 450 nm was recorded by a plate reader.
Quantity Kind: IC50 at 24 h

| Structure Smiles String | Value |
| --- | --- |
| N=C(N)c1ccc(-c2ccc(-c3ccc(C(=N)N)cc3)[se]2)cc1 | > 100 µM |

###

# Tested on: E. coli (ATCC 25922)
# Test Protocol: MIC determination, sensitization fold and FIC index on E. coli
# Assay type: cell-based
# Measurement Context: E. coli; rifampicin; compound at 25 μM
# Method: Bacteria culture and MICs determination: Gram-negative bacteria were cultured in Mueller Hinton II cation-adjusted broth. Gram-positive bacteria were cultured in LB broth. Mycobacterium smegmatis was cultured in Middlebrook 7H9 Broth. MICs of antibiotics itself were determined by performing two-fold serial dilutions of antibiotics. […] The bacterial density was then determined by OD600. […] MICs was determined as the concentrations that inhibit more than 90% of bacteria growth. […]
Structures can show the parent of a compound that is named as a salt.

| Compound | Experimental System | Sensitization fold |
| --- | --- | --- |
| Cc1cc(CCc2ccc(C(=N)N)cc2)cc(CCc2ccc(C(=N)N)cc2)c1 [MD-108, dihydrochloride] | E. coli (ATCC 25922) | 32-fold at 25 μM; |
| Cc1ccc(COc2ccc(C(=N)N)cc2)cc1COc1ccc(C(=N)N)cc1 [MD-119, dihydrochloride] | E. coli (ATCC 25922) | 32-fold at 25 μM, |
| COc1cc(C(=N)N)ccc1OCc1cc(C)cc(COc2ccc(C(=N)N)cc2OC)c1 [MD-103, dihydrochloride] | E. coli (ATCC 25922) | 4-fold at 25 μM |
| N=C(N)c1ccc(OCc2cccc(COc3ccc(C(=N)N)cc3)c2)cc1 [DB2559, dihydrochloride] | E. coli (ATCC 25922) | 8-fold at 25 μM; |
| N=C(N)c1ccc(OCc2cccc(COc3ccc(C(=N)N)cc3F)c2F)c(F)c1 [DB2558, dihydrochloride] | E. coli (ATCC 25922) | 8-fold at 25 μM; |
| Cc1cc(COc2ccc(C(=N)N)cc2)cc(COc2ccc(C(=N)N)cc2)c1 [MD-100, dihydrochloride] | E. coli (ATCC 25922) | 32-fold at 25 μM |
| Cc1cc(COc2ccc(CN)cc2)cc(COc2ccc(CN)cc2)c1 [MD-106, dihydrochloride] | E. coli (ATCC 25922) | 4-fold at 25 μM |
| N=C(N)c1ccc(OCCCCCCOc2ccc(C(=N)N)cc2)cc1 | E. coli (ATCC 25922) | 8-fold at 25 μM; |
| Cc1cc(OCc2ccc(C(=N)N)cc2)cc(OCc2ccc(C(=N)N)cc2)c1 [MD-109, dihydrochloride] | E. coli (ATCC 25922) | 32-fold at 25 μM |
| Cc1cc(COc2cccc(C(=N)N)c2)cc(COc2cccc(C(=N)N)c2)c1 [MD-116, dihydrochloride] | E. coli (ATCC 25922) | 8-fold at 25 μM |
| N=C(N)c1ccc(OCc2cc(COc3ccc(C(=N)N)cc3)cc(COc3ccc(C(=N)N)cc3)c2)cc1 [MD-107, trihydrochloride] | E. coli (ATCC 25922) | 8-fold at 25 μM |
| Cc1cc(COc2ccc(C(=N)N)cc2F)cc(COc2ccc(C(=N)N)cc2F)c1 [MD-120, dihydrochloride] | E. coli (ATCC 25922) | 64-fold at 25 μM |
| Cc1cc(COc2ccc(NC(=N)N)cc2)cc(COc2ccc(NC(=N)N)cc2)c1 [MD-125, di(trifluoroacetate)] | E. coli (ATCC 25922) | 32-fold at 25 μM |

###

# Tested on: B. subtilis
# Test Protocol: MIC determination and sensitization fold on B. subtilis
# Type: cell-based
# Measurement Context: B. subtilis; erythromycin; compound at 6 μM
Where a name gives a salt, the structure may show the parent alone.
Below, each entry is listed alongside its reported Sensitization fold.

| Molecule | Sensitization fold |
| --- | --- |
| N=C(N)c1ccc(OCc2cccc(COc3ccc(C(=N)N)cc3)c2)cc1 [DB2559, dihydrochloride] | 4-fold at 6 μM |
| N=C(N)c1ccc(OCc2ccc(COc3ccc(C(=N)N)cc3)cc2)cc1 [MD-101, dihydrochloride] | 4-fold at 6 μM, |
| Cc1cc(CCc2ccc(C(=N)N)cc2)cc(CCc2ccc(C(=N)N)cc2)c1 [MD-108, dihydrochloride] | 32-fold at 6 μM. |
| Cc1cc(CSc2ccc(C(=N)N)cc2)cc(CSc2ccc(C(=N)N)cc2)c1 [MD-117, dihydrochloride] | 32-fold at 6 μM |
| N=C(N)c1ccc(OCc2cc(COc3ccc(C(=N)N)cc3)cc(COc3ccc(C(=N)N)cc3)c2)cc1 [MD-107, trihydrochloride] | 8-fold at 6 μM |
| CC(C)(C)c1cc(COc2ccc(C(=N)N)cc2F)cc(COc2ccc(C(=N)N)cc2F)c1 [MD-115, dihydrochloride] | 8-fold at 6 μM |
| Cc1ccc(COc2ccc(C(=N)N)cc2)cc1COc1ccc(C(=N)N)cc1 [MD-119, dihydrochloride] | 16-fold at 6 μM |
| N=C(N)c1ccc(OCCCCCCOc2ccc(C(=N)N)cc2)cc1 [DB2362] | 4-fold at 6 μM |
| Cc1cc(COc2ccc(C(=N)N)cc2)cc(COc2ccc(C(=N)N)cc2)c1 [MD-100, dihydrochloride] | 8 fold at 6 μM. |
| Cc1cc(CSc2ccc(C3=NCCN3)cc2)cc(CSc2ccc(C3=NCCN3)cc2)c1 [MD-118, dihydrochloride] | 16-fold at 6 μM, |

###

# System: E. coli (ATCC 25922)
# Test Protocol: MIC determination, sensitization fold and FIC index on E. coli
# Type: cell-based
# Measurement Context: Escherichia coli, ATCC25922, 24 h
Where a name gives a salt, the structure may show the parent alone.

| Compound | Measurement Units | Qualifier Operator | MIC |
| --- | --- | --- | --- |
| COc1cc(OCc2ccc(C(=N)N)cc2)cc(OCc2ccc(C(=N)N)cc2)c1 [MD-126, dihydrochloride] | µM | > | 50 |
| N=C(N)c1ccc(OCc2ccc(COc3ccc(C(=N)N)cc3)cc2)cc1 [MD-101, dihydrochloride] | µM | = | 100 |
| Cc1cc(COc2cccc(C(=N)N)c2)cc(COc2cccc(C(=N)N)c2)c1 [MD-116, dihydrochloride] | µM | = | 100 |
| Cc1cc(OCc2ccc(C(=N)N)cc2)cc(OCc2ccc(C(=N)N)cc2)c1 [MD-109, dihydrochloride] | µM | = | 100 |
| Cc1cc(COc2ccc(C(=N)N)cc2)cc(COc2ccc(C(=N)N)cc2)c1 [MD-100, dihydrochloride] | µM | = | 100 |
| Cc1cc(COc2ccc(C3=NCCCN3)cc2)cc(COc2ccc(C3=NCCCN3)cc2)c1 [MD-113, dihydrochloride] | µM | > | 100 |
| Cc1cc(COc2ccc(C(=N)NC(C)C)cc2)cc(COc2ccc(C(=N)NC(C)C)cc2)c1 [MD-102, dihydrochloride] | µM | = | 50 |
| N=C(N)c1ccc(OCc2cccc(COc3ccc(C(=N)N)cc3)c2F)cc1 [DB2573, dihydrochloride] | µM | = | 25 |
| N=C(N)c1ccc(OCc2cc(COc3ccc(C(=N)N)cc3)cc(COc3ccc(C(=N)N)cc3)c2)cc1 [MD-107, trihydrochloride] | µM | = | 50 |
| CC(C)(C)c1cc(COc2ccc(C(=N)N)cc2)cc(COc2ccc(C(=N)N)cc2)c1 [MD-105, dihydrochloride] | µM | = | 25 |
| N=C(N)c1ccc(CCc2cc(CCc3ccc(C(=N)N)cc3)cc(C(F)(F)F)c2)cc1 [MD-128, dihydrochloride] | µM | = | 100 |
| Cc1cc(COc2ccc(C(=N)N)cc2F)cc(COc2ccc(C(=N)N)cc2F)c1 [MD-120, dihydrochloride] | µM | = | 100 |
| Cc1ccc(COc2ccc(C(=N)N)cc2)cc1COc1ccc(C(=N)N)cc1 [MD-119, dihydrochloride] | µM | = | 100 |
| COc1cc(C(=N)N)ccc1OCc1cc(C)cc(COc2ccc(C(=N)N)cc2OC)c1 [MD-103, dihydrochloride] | µM | = | 50 |
| Cc1cc(COc2ccc(NC(=N)N)cc2)cc(COc2ccc(NC(=N)N)cc2)c1 [MD-125, di(trifluoroacetate)] | µM | = | 100 |
| Cc1cc(CCc2ccc(C(=N)N)cc2)cc(CCc2ccc(C(=N)N)cc2)c1 [MD-108, dihydrochloride] | µM | = | 100 |
| N=C(N)c1ccc(OCc2cccc(COc3ccc(C(=N)N)cc3)c2)cc1 [DB2559, dihydrochloride] | µM | = | 100 |

Values compiled from patent US20230105108A1.
